target: human M1 receptor (hCHRM1) (Homo sapiens, UniProt P11229); construct: expressed in transfected cells; host or cells: CHO-K1; assay: Measurement of M1 receptor positive allosteric modulator (M1PAM) activity, calcium fluorescence (FLIPRtetra) in CHO-K1 cells in the presence of acetylcholine at EC20; type: cell-based; settings: test compound 10 μM, in the presence of acetylcholine at EC20 (final 0.6 nM), CHO-K1 cells expressing hCHRM1
Sequence (P11229 whole entry): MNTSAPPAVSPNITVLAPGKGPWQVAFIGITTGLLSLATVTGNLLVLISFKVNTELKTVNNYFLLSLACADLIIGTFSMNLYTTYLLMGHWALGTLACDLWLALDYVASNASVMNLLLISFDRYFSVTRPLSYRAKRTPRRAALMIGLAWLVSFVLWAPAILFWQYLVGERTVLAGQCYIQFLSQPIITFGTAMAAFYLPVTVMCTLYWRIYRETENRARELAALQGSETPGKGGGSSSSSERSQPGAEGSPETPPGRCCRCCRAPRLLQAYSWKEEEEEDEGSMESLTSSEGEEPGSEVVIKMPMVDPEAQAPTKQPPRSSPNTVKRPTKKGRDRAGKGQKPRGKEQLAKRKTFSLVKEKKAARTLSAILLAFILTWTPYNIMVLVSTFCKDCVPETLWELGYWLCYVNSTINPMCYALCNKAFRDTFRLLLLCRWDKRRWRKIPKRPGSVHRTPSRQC
Property label: activity (%) at 10 μM

Recorded activity (%) at 10 μM, per entry:
{"Molecule": "Cn1ccc(-c2ccc(CN3Cc4ccnc(Oc5c(F)cc(C#N)cc5F)c4C3=O)c(F)c2)n1", "Target": "human M1 receptor (hCHRM1) (Homo sapiens, UniProt P11229)", "Recorded value": 102}
{"Molecule": "Cn1cc(-c2ccc(CN3Cc4ccnc(Oc5ccc(C(F)F)cc5F)c4C3=O)cc2)cn1", "Target": "human M1 receptor (hCHRM1) (Homo sapiens, UniProt P11229)", "Recorded value": 100}
{"Molecule": "O=C1c2c(ccc(F)c2O[C@H]2CCCC[C@@H]2O)CN1Cc1ccc(-n2cccn2)cc1 (relative stereo)", "Target": "human M1 receptor (hCHRM1) (Homo sapiens, UniProt P11229)", "Recorded value": 118}
{"Molecule": "Cn1cc(-c2ccc(CN3Cc4cccc(Oc5c(F)cccc5C#N)c4C3=O)c(Cl)c2)cn1", "Target": "human M1 receptor (hCHRM1) (Homo sapiens, UniProt P11229)", "Recorded value": 109}
{"Molecule": "Cn1ccc(-c2ccc(CN3Cc4ccnc(OCC5CCCO5)c4C3=O)cc2)n1 (single isomer, unassigned) [Example 245]", "Target": "human M1 receptor (hCHRM1) (Homo sapiens, UniProt P11229)", "Recorded value": 101}

[I] CCC(O)COc1nccc2c1C(=O)N(Cc1ccc(-c3cn(C)nc3C)cc1)C2 (single isomer, unassigned) [Example 276]
[II] O=C1c2c(cccc2Oc2c(F)cccc2Cl)CN1Cc1ccc(-c2ccnnc2)cc1
Of I and II , which shows the smaller activity (%) at 10 μM value? State your choice using its label.
II
(II: 57%, I: 99%)

###

target: human M1 receptor (hCHRM1) (Homo sapiens); construct: expressed in transfected cells; host or cells: CHO-K1; assay: Measurement of M1 receptor positive allosteric modulator (M1PAM) activity, calcium fluorescence (FLIPRtetra) in CHO-K1 cells in the presence of acetylcholine at EC20; type: cell-based; conditions: test compound 10 μM, in the presence of acetylcholine at EC20 (final 0.6 nM), CHO-K1 cells expressing hCHRM1
Property label: activity (%) at 10 μM

{"Compound": "Cn1ccc(-c2ccc(CN3Cc4ccnc(OCC5CCCO5)c4C3=O)cc2)n1 (stereo not shown) [Example 79]", "Target": "human M1 receptor (hCHRM1) (Homo sapiens)", "Unit spec": "%", "Recorded value": 114}
{"Compound": "Cc1nn(C)cc1-c1ccc(CN2Cc3ccnc(O[C@@H]4CCC[C@H]4O)c3C2=O)cc1 (single isomer, unassigned) [Example 255]", "Target": "human M1 receptor (hCHRM1) (Homo sapiens)", "Unit spec": "%", "Recorded value": 106}
{"Compound": "Cn1cc(-c2ccc(CN3Cc4ccnc(OC5CCC5)c4C3=O)cc2)nn1", "Target": "human M1 receptor (hCHRM1) (Homo sapiens)", "Unit spec": "%", "Recorded value": 98}
{"Compound": "Cn1cc(-c2ccc(CN3Cc4cccc(Oc5c(F)cccc5C#N)c4C3=O)cn2)cn1", "Target": "human M1 receptor (hCHRM1) (Homo sapiens)", "Unit spec": "%", "Recorded value": 76}
{"Compound": "O=C1c2c(ccnc2O[C@@H]2CCCC[C@H]2O)CN1Cc1c(F)cc(F)cc1F (single isomer, unassigned)", "Target": "human M1 receptor (hCHRM1) (Homo sapiens)", "Unit spec": "%", "Recorded value": 101}
{"Compound": "Cc1nn(C)cc1-c1ccc(CN2Cc3cccc(O[C@@H]4COCC[C@H]4O)c3C2=O)cc1", "Target": "human M1 receptor (hCHRM1) (Homo sapiens)", "Unit spec": "%", "Recorded value": 117}
{"Compound": "O=C1c2c(cc(F)cc2O[C@H]2CCCC[C@@H]2O)CN1Cc1ccc(-n2cccn2)cc1 (relative stereo)", "Target": "human M1 receptor (hCHRM1) (Homo sapiens)", "Unit spec": "%", "Recorded value": 104}
{"Compound": "Cc1nn(C)cc1-c1ccc(CN2Cc3ccnc(Oc4ccc(C(C)(C)O)cc4F)c3C2=O)cc1", "Target": "human M1 receptor (hCHRM1) (Homo sapiens)", "Unit spec": "%", "Recorded value": 101}
{"Compound": "O=C1c2c(ccnc2OCC2CCCO2)CN1Cc1ccc(-c2cnn3c2CCCC3)cc1 (stereo not shown)", "Target": "human M1 receptor (hCHRM1) (Homo sapiens)", "Unit spec": "%", "Recorded value": 92}
{"Compound": "Cn1cc(-c2ccc(CN3Cc4cccc(OC[C@H]5CCCO5)c4C3=O)cc2)cn1", "Target": "human M1 receptor (hCHRM1) (Homo sapiens)", "Unit spec": "%", "Recorded value": 102}
{"Compound": "COc1cccc(F)c1Oc1nccc2c1C(=O)N(Cc1ccc(-c3cn(C)nc3C)cc1)C2", "Target": "human M1 receptor (hCHRM1) (Homo sapiens)", "Unit spec": "%", "Recorded value": 90}
{"Compound": "O=C1c2c(OCC3CCCO3)ccnc2CN1Cc1ccc(-n2cccn2)cc1 (stereo not shown)", "Target": "human M1 receptor (hCHRM1) (Homo sapiens)", "Unit spec": "%", "Recorded value": 115}
{"Compound": "CC(C)n1cc(-c2ccc(CN3Cc4ccnc(Oc5c(F)cc(C#N)cc5F)c4C3=O)cc2)cn1", "Target": "human M1 receptor (hCHRM1) (Homo sapiens)", "Unit spec": "%", "Recorded value": 91}
{"Compound": "Cc1cc(-c2cnc(CN3Cc4cccc(Oc5c(F)cccc5F)c4C3=O)c(F)c2)ccn1", "Target": "human M1 receptor (hCHRM1) (Homo sapiens)", "Unit spec": "%", "Recorded value": 92}
{"Compound": "Cn1cc(-c2ccc(CN3Cc4ccnc(Oc5cc(C(C)(C)O)ccc5F)c4C3=O)cc2)cn1", "Target": "human M1 receptor (hCHRM1) (Homo sapiens)", "Unit spec": "%", "Recorded value": 99}
{"Compound": "Cc1nn(C)cc1-c1ccc(CN2Cc3ccnc(OCC4CCCO4)c3C2=O)cc1 (stereo not shown)", "Target": "human M1 receptor (hCHRM1) (Homo sapiens)", "Unit spec": "%", "Recorded value": 104}
